Hello, the source for this data is paper PMC10035947, in case you need it.

# Test system: NCI-H322M
# assay-method-text: NCI SRB assay
# Format: cell-based, human
# test-settings: 5-dose, read-out: LC50 (the source's name)
measured-attribute: CC50

Q: I am curious: what CC50 value has been reported for Cc1ccc(-c2nc(Nc3ccccc3C(=O)O)c3ccccc3n2)cc1 ?
A: < 100 µM

* * *

# Test system: HL-60(TB)
# assay-method-text: NCI SRB assay
# Type: cell-based, human
# test-settings: HL-60(TB), 5-dose; read-out: LC50 (the source's name)
measured-attribute: CC50

Q: I am curious: what CC50 value has been reported for Cc1ccc(-c2nc(Nc3ccccc3C(=O)O)c3ccccc3n2)cc1 [6b] ?
A: < 100 µM
